Give measured Plant response rating, Wheat for each item. Keep answers brief.
# System: wheat (Triticum aestivum)
# EXPERIMENTAL PROTOCOL: Test A pre-/postemergence plant response
# Assay type: in vivo
# CONDITION PARAMETERS: Postemergence, 500 g ai/ha; 0 to 100 scale, 0 = no effect, 100 = complete control; approx. ten days
Please give the numeric answer without any surrounding text.

For reference, reported Plant response rating, Wheat for O=C1CCCC(O)=C1C(=O)c1cnc(-c2ccc(Br)cc2)n(-c2ccccc2)c1=O stands at 0

For reference, reported Plant response rating, Wheat for Cc1ccc(F)c(-n2c(-c3ccccc3)ncc(C(=O)C3=C(O)CCCC3=O)c2=O)c1 stands at 0

For reference, reported Plant response rating, Wheat for CCCn1c(-c2ccn(C)n2)ncc(C(=O)C2=C(O)CCCC2=O)c1=O stands at 0

For reference, reported Plant response rating, Wheat for CCn1c(-c2cc(F)cc(F)c2)ncc(C(=O)C2=C(O)CCCC2=O)c1=O stands at 50

For reference, reported Plant response rating, Wheat for O=C1CCCC(O)=C1C(=O)c1cnc(-c2ccccc2)n(-c2ccc(F)cc2)c1=O stands at 30

For reference, reported Plant response rating, Wheat for CCCn1c(-c2cccc(F)c2)ncc(C(=O)C2=C(O)CCCC2=O)c1=O stands at 0

For reference, reported Plant response rating, Wheat for CCCCc1ncc(C(=O)C2=C(O)CCCC2=O)c(=O)n1-c1ccccc1C stands at 20

For reference, reported Plant response rating, Wheat for O=C1CCCC(O)=C1C(=O)c1cnc(C2CC2)n(-c2ccccc2)c1=O stands at 60

For reference, reported Plant response rating, Wheat for O=C1CCCC(O)=C1C(=O)c1cnc(-c2ccccc2)n(C2CCCCCC2)c1=O stands at 30

For reference, reported Plant response rating, Wheat for O=C1CCCC(O)=C1C(=O)c1cnc(-c2ccsc2)n(CC2CCCO2)c1=O (stereo not shown) stands at 20

For reference, reported Plant response rating, Wheat for O=C1CCCC([O-])=C1C(=O)c1cnc(-c2ccccc2)n(-c2ccccc2)c1=O.[K+] stands at 0

For reference, reported Plant response rating, Wheat for COCCOCCn1c(-c2ccccc2)ncc(C(=O)C2=C(O)CCCC2=O)c1=O stands at 50

For reference, reported Plant response rating, Wheat for O=C1CCCC(O)=C1C(=O)c1cnc(-c2ccc(Cl)cc2)n(-c2ccccc2)c1=O stands at 0

For reference, reported Plant response rating, Wheat for CCCn1c(-c2ccc(Br)cc2)ncc(C(=O)C2=C(O)CCCC2=O)c1=O stands at 0

For reference, reported Plant response rating, Wheat for CCCCn1c(CCC)ncc(C(=O)C2=C(O)CCCC2=O)c1=O stands at 50

For reference, reported Plant response rating, Wheat for CCCn1c(-c2ccsc2)ncc(C(=O)C2=C(O)CCCC2=O)c1=O stands at 0

For reference, reported Plant response rating, Wheat for COc1cccc(-n2c(-c3ccccc3)ncc(C(=O)C3=C(O)CCCC3=O)c2=O)c1 stands at 0

For reference, reported Plant response rating, Wheat for COCCn1c(-c2cccc(Br)c2)ncc(C(=O)C2=C(O)CCCC2=O)c1=O stands at 40

For reference, reported Plant response rating, Wheat for COCCn1c(-c2ccn(C)n2)ncc(C(=O)C2=C(O)CCCC2=O)c1=O stands at 0
